- Protocol: yeast display, Sf9 membrane polyspecificity reagent, FACS + sequencing; frameworks hold sequencing errors
Parameter: polyreactivity (PSR sort gate)

# example entries with known answers
[[record]]
biopolymer_sequence = "QDQRVESGGGLVQAGGSLRLSCAASGRTISVYAMGWYRQAPGKERELVAAIRTSGGITYYADSVKGRFTISRDNAKNTVYLQMNSLKPEDTAVYYCAAETFRHDSYTRYYYWGQGTQVTVSS"
parameter = "polyreactivity (PSR sort gate)"
value_reported = "high polyreactivity"

[[record]]
biopolymer_sequence = "QVQHVESGGGLVQAGGSLRLSCAASGGTFLANAMGWYRQAPGKERELVAAISWRGGSTRYADSVKGRFTISRDNAKNTVYLQMNSLKPEDTAVYYCAARYLYFTGFYYWGQGTQVTVSS"
parameter = "polyreactivity (PSR sort gate)"
value_reported = "high polyreactivity"

[[record]]
biopolymer_sequence = "QVQLVESGGGLVQAGGSLRLSCAASGGIFGSYAMGWYRHAPGKERELVADITQSGGRTRYADSVKGRFTISRDNAKNTVYLQMNSLKPEDTAVYYCNAQDVDSGDDYDYWGQGTQVTVSS"
parameter = "polyreactivity (PSR sort gate)"
value_reported = "low polyreactivity"

[[record]]
biopolymer_sequence = "QVQLVESGGGLVQAGGSLRLSCAASGRIFRDYAMGWYRQAPGKERELVAAITGSGGRTYYADSVKGRFTISRDTAKNTVYLQMNSLKPEDTAVYYCAAYLGRRGQEMDYWGQGTQVTVSS"
parameter = "polyreactivity (PSR sort gate)"
value_reported = "high polyreactivity"

[[record]]
biopolymer_sequence = "QVQLQESGGGLVQAGGSLCMSCAASGSISDYIFMGWYRQAPGKEREFVAGIGIGGNTNYADSVKGRFTISRDNAKNTVYLQMNSLKPEDTAVYYCAANATYTDYYAYWGQGTKVTVSS"
parameter = "polyreactivity (PSR sort gate)"
value_reported = "low polyreactivity"

[[record]]
biopolymer_sequence = "QVHLVESGGGLVQAGGSLRLSCAASGVIFFYYAMGWYRQAPGKESELVAVIDRSGGTTYYADSVKGRFTISRDNAKNTVYLQMNSLKPEDTAVYYCNADDFTYPSGWGFIYDYWGQGTQVTVSS"
parameter = "polyreactivity (PSR sort gate)"
value_reported = "low polyreactivity"

[[record]]
biopolymer_sequence = "QVQLVESGGGLVQAGGSLRLSCAASGSIFLPNAMGWYRQAPGKEWELVAAISWSGGSTYADSVKGRFTISRDNAKNTVYLQMNSLKPEDTAVYYCAADDGFTPRDLYVGYDYWGLGTQVTVSS"
parameter = "polyreactivity (PSR sort gate)"
value_reported = "low polyreactivity"

[[record]]
biopolymer_sequence = "QVQLVESGGGLVQAGGSLRLSCAASGRTFTSYAMGWYRQAPGKERELVAGISSGGSTNYADSVKGRFTISRDNEKNTVYLQMNSLKPEDTEVYYCAAGFSPGTYDAPTLAFDYWGQGTQVTVSS"
parameter = "polyreactivity (PSR sort gate)"
value_reported = "low polyreactivity"


[in] Requested field: polyreactivity (PSR sort gate). Item: QVQLVESGGGLVQAGGSLRLSCAASGSTFTGYAMGWYRQAPGKERELVAAIDVSGATTYYADSVKGRFTISRDNAKNTVYLQMNSLKPEDTAVYYCATYATNSVAAYDYWGQGTQVTVSS
[out] low polyreactivity

[in] Requested field: polyreactivity (PSR sort gate). Item: QVQLVESGGGLVQAGGSLRLSCAASGYIFGYNAMGWYRQAPGKERELVATINSSDSTNYADSVKGRFTISRDNAKNTVYLQMNSLKPEDTAVYYCNKDHVRRSYPYDYWGQGTQVTVSS
[out] low polyreactivity

[in] Requested field: polyreactivity (PSR sort gate). Item: QVQLEESGGGLVQAGGSLRLSCAASGGTFYYSPMGWDREPPGKERELVAAIRWRGGNTYYADSVKGRFTISLDNAKNTVYLQMNSVKPEDTAVYYCAAQTHDYNRYVGTTAYDYWGQGTQVTVSS
[out] low polyreactivity

[in] Requested field: polyreactivity (PSR sort gate). Item: QVQLVESWGGLVQAGGSLRLRCAASGSTSLGYAMGWYRQAPGKERELVASISWTGGGKYYADSVKGRFTISRDNAKNTVYLQMNSLKPEDTAVYYCAADLTGYHPYIYGYWGQVTQVTVSS
[out] low polyreactivity

[in] Requested field: polyreactivity (PSR sort gate). Item: QVHLVESGGGLVQAGGSLRLSCAASGRTFRVNAMGWNRKAPGKERELLAAISSRGGTTYYADSVKGRCTISSDYAKNTLYLQMYSLKAEDTAVYYCAAASDRDFPFDYWGQGTQVSVSS
[out] high polyreactivity

[in] Requested field: polyreactivity (PSR sort gate). Item: QVQLVESGGGLVQAGGSLRLSCAASGFIFSKYAMGWYRQAPGKERELVAAISWSGGSTYYADSVKGRFTISRDNAKNTVYLQMNSLKPEDTAVYYCAADWYFELFRVYAEYDYWGQGTQVTVSS
[out] low polyreactivity

[in] Requested field: polyreactivity (PSR sort gate). Item: QVQLVESGGGLVQAGGSLRLTCAASGRTFIVYAMGWYRQAPGKERELVARISSGSRTSYADSVTGRFTISRDNAKNTVYLQMNSLKPEDTAVYYFAKSRVIKYEFDYWGQGTQVTLSS
[out] low polyreactivity

[in] Requested field: polyreactivity (PSR sort gate). Item: QVQLVESGGGLVQAGGSLRLSCAASGRTFGVYVMGWSRQAPGKERELVAVITISGGSTYYADSVKGRFTISRDNAKNTVYLQMNSLKPEDTAVYYCAARTYYGYDYWGQGTQVTVSS
[out] high polyreactivity

###

- Protocol: yeast display, Sf9 membrane polyspecificity reagent, FACS + sequencing; frameworks hold sequencing errors
Parameter: polyreactivity (PSR sort gate)

[[record]]
biopolymer_sequence = "QVQLVESGGGLVQAGGSLRLSCAASGYIFLYNAMGWYRQAPGKERELVAAIRAIGGRTYYADSVKGRFTISRDNAKNTVYLQMNSLKPEDTAVYYCNARGQRRRSTGLRYIYDYWGQGTQVTVSS"
value_reported = "high polyreactivity"

[[record]]
biopolymer_sequence = "QVQLVESGGGLVQAGGSLRLSCAASGFTIDAYAMGWDRQAPGKERELVAAISGSGGSTYYADSVKGRFTISRDNAKNTVYLQMNSLKPEDTAVYYCATDPGPYDYDYWGQGTQVTVSS"
value_reported = "low polyreactivity"

[[record]]
biopolymer_sequence = "QVQLVESGGGLVQAGGSLRLSSAASGRILKYYAMGWYRQAPGKERELVAAIGSGGSTYYADSVKGRFTISRDNAKNTVYLQMNSLKPDDTAVYYCNAEDQWGGYGYDYWGQGTQLTVSS"
value_reported = "low polyreactivity"

[[record]]
biopolymer_sequence = "QVQLVESGGGLVQAGGSLRLSCAASGSIFGRYAMGWYRQAPGKERELVAAITFTGGSTYYADSVKGRFTISRDNAKNTVYLQMNSLKPEDTAVYYCAARSLFYRGYGYWGQGTQVTVSS"
value_reported = "high polyreactivity"

[[record]]
biopolymer_sequence = "QVQLVESGGGVVQAGGSLRLSCAATGRTFWRYAMGGYIQAPGKERELVASISVSGGTTYYAYSVKGRFTISRDHAKNTVYLQMNSLKPEDTAVYYCAARYGSIYSILYYRFVYWGQGTQVTVSS"
value_reported = "high polyreactivity"

[[record]]
biopolymer_sequence = "QVQLVESGGGLVQAGGSLRLSCAASGRIFYSYAMGWYRQAPGKDRELVAAITRTGGNTYYADSVKGRFTISRDNAKNTVYLQMNSLKPEDTAVYYCNAEYWKEHYPEIYYSWGQGTQVTVSS"
value_reported = "low polyreactivity"

[[record]]
biopolymer_sequence = "QVQLVESGGGLVQAGGSLRLSCAASGFTFEYYAMGWYRPAPGKERELVADITTSSAGTYYADSVKGRFTISRDNAKNTVYLQMNSLKPEDTAVYYCNRDDLNTGEDLDYWGQGTQVTVSS"
value_reported = "low polyreactivity"

[[record]]
biopolymer_sequence = "QVQLVESGGGLVQAGGSLRLSCAASRSIFRSYAMGWYTQAPGKERELVAAITSSSGSTYYADSVKGRFTISRDNAKNTVYLQMNSLKPEDTAVYYCNAPYWKSRFRAYYHWGQGTQVTVSS"
value_reported = "high polyreactivity"


[in] Requested field: polyreactivity (PSR sort gate). Item: QVQLVESGGGLVQAGGSLRLSCAASGFTFKGNAMGWYRQAPGKERELVATITQSAGSTYYADSVKGRFTISRDNAKNTVYLQMNSLKPEDTAVYYCNADPITLYYYSWYNYWGQGTQVTVSS
[out] low polyreactivity

[in] Requested field: polyreactivity (PSR sort gate). Item: QVQLVESGGGLVQAGGSLRLSCAASGRTFSLNAMGWYRQAPGKERELVAAINRGGTTYYADSVKGRFTISRDNAKNTVYLQMNSLKPEDTAVYDCAARVWGRWAGSYAWWHGYNSWGQGTQVSVSS
[out] high polyreactivity

[in] Requested field: polyreactivity (PSR sort gate). Item: QVQLVESGGGLDQAGGSLRLSSAASGRTFYYYAMGWYRKAPGKERELVAAITRSGGSTYYADSVKGRFTISRDNAKNTFYLQMNSLKPEDTAVYYCAVQVRPNSGGTRIHRGGYDYWGQGTQVTVSS
[out] low polyreactivity

Hey, just so you know, these numbers are from the nanobody polyreactivity screen of Harvey et al. (2022).
